Recorded log10 of IC50 values for a group of compounds are listed next.
# SYSTEM_UNDER_TEST: protein-protein interaction between Kras and SOS1 (biotin-tagged human Kras loaded with GDP, His-tagged human SOS1) (Homo sapiens (Human), UniProt P01116, G12D)
# METHOD_NOTES: Protein-protein interaction inhibition between Kras and SOS1 (KrasG12D-SOS PPI) using AlphaScreen;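 note: kras produced in E. coli, Ni-coupled donor beads and streptavidin acceptor beads, excitation 680 nm with emission detected at 520–620 nm via singlet oxygen transfer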
# Format: biochemical
# CONDITION: AlphaScreen; biotin-tagged human Kras loaded with GDP, His-tagged human SOS1; read-out: KRAS G12D-SOS PPI IC50
Numbered stars: 1 amine (or outer) side, 2 acyl side, 3 side chain; on linkers, the order of the positions; unused ones are H or OH. Bridge positions count the residues as written; N and C are the ends. Square brackets hold non-standard residues; d marks the D form. Peptide text beside a SMILES is read from it. * marks the point of attachment. hPhe(3-Cl-4-CF3) = N[C@@H](CCc1ccc(C(F)(F)F)c(Cl)c1)C(=O)O; NMePhe(4-Me) = CN[C@@H](Cc1ccc(C)cc1)C(=O)O; NMeGly(cPent) = CN[C@H](C(=O)O)C1CCCC1; X38 = CN1CCN(CCN(CC(=O)[*:2])[*:1])CC1; NMeCha = CN[C@@H](CC1CCCCC1)C(=O)O; hhPhe = N[C@@H](CCCc1ccccc1)C(=O)O; NMeChg = CN[C@H](C(=O)O)C1CCCCC1; NMeD = CN[C@@H](CC(=O)O)C(=O)O; NMeL = CN[C@@H](CC(C)C)C(=O)O; dNMeAbu = CC[C@@H](NC)C(=O)O; NMeV = CN[C@H](C(=O)O)C(C)C; d(β3hA) = C[C@@H](N)CC(=O)O; NMeA = CN[C@@H](C)C(=O)O; Piperidide = C1CCN(*)CC1; Pyrrolidide = C1CCN(*)C1; dNMeA = CN[C@H](C)C(=O)O; Ac5c = NC1(C(=O)O)CCCC1; Aze = O=C(O)[C@@H]1CCN1; Sar = CNCC(=O)O
Hello, just confirming the data are log10 of IC50 with units of nM.

# input compound: CC[C@H](C)[C@@H]1NC(=O)[C@H](C)N(C)C(=O)C[C@@H](C)NC(=O)[C@H](C2CCCC2)N(C)C(=O)C2(CCCC2)NC(=O)[C@@H]2CCCN2C(=O)[C@H](CCc2ccc(C(F)(F)F)c(Cl)c2)NC(=O)[C@@H](C)N(C)C(=O)[C@H](C(C)C)N(C)C(=O)[C@@H]2CCN2C(=O)[C@H](C)N(C)C1=O [Compound 1066] (cyclo([Ac5c][NMeGly(cPent)][d(β3hA)][NMeA]I[NMeA][Aze][NMeV][dNMeA][hPhe(3-Cl-4-CF3)]P)) ; wanted: its log10 of IC50
1.38

Endpoint output: log10 of IC50 of CC[C@H](C)[C@@H]1NC(=O)[C@H](CC(C)C)N(C)C(=O)C[C@@H](C(=O)N2CCCCC2)N(C)C(=O)[C@H](C2CCCCC2)N(C)C(=O)C2(CCCC2)NC(=O)CN(CCN2CCN(C)CC2)C(=O)[C@H](CCc2ccc(C(F)(F)F)c(Cl)c2)NC(=O)CN(C)C(=O)[C@H](CC2CCCCC2)N(C)C(=O)CN(C)C(=O)CN(C)C1=O [Compound 2180] ([NMeL]I[Sar][Sar][NMeCha][Sar][hPhe(3-Cl-4-CF3)][X38][Ac5c][NMeChg][NMeD]-Piperidide; lactam N-11) . Value?
-0.03

// log10 of IC50 lookup, key: CC[C@H](C)[C@@H]1NC(=O)[C@H](CC(C)C)N(C)C(=O)C[C@@H](C)NC(=O)[C@H](C(C)C)N(C)C(=O)C2(CCCC2)NC(=O)[C@@H]2CCCN2C(=O)[C@H](CCc2ccc(C(F)(F)F)c(Cl)c2)NC(=O)CN(C)C(=O)[C@H](Cc2ccc(C)cc2)N(C)C(=O)[C@@H]2CCN2C(=O)[C@H](C)N(C)C1=O [Compound 1801] (cyclo([Ac5c][NMeV][d(β3hA)][NMeL]I[NMeA][Aze][NMePhe(4-Me)][Sar][hPhe(3-Cl-4-CF3)]P))
0.46

Consider the compound shown here: CC[C@H](C)[C@@H]1NC(=O)[C@H](C)N(C)C(=O)C[C@@H](C(=O)N2CCCCC2)N(C)C(=O)[C@H](C(C)C)N(C)C(=O)C2(CCCC2)NC(=O)[C@@H]2CCCN2C(=O)[C@H](CCCc2ccccc2)NC(=O)CN(C)C(=O)[C@H](CC2CCCCC2)N(C)C(=O)[C@@H]2CCN2C(=O)[C@H](C)N(C)C1=O [Compound 659] ([NMeA]I[NMeA][Aze][NMeCha][Sar][hhPhe]P[Ac5c][NMeV][NMeD]-Piperidide; lactam N-11) What is its recorded log10 of IC50?
2.11

Entry CC[C@H](C)[C@@H]1NC(=O)[C@H](CC(C)C)N(C)C(=O)C[C@@H](C(=O)N2CCCC2)N(C)C(=O)[C@H](C(C)C)N(C)C(=O)C2(CCCC2)NC(=O)[C@@H]2CCCN2C(=O)[C@H](CCc2ccc(C(F)(F)F)c(Cl)c2)NC(=O)CN(C)C(=O)[C@H](Cc2ccc(C)cc2)N(C)C(=O)[C@@H]2CCN2C(=O)[C@H](C)N(C)C1=O [Compound 1866] ([NMeL]I[NMeA][Aze][NMePhe(4-Me)][Sar][hPhe(3-Cl-4-CF3)]P[Ac5c][NMeV][NMeD]-Pyrrolidide; lactam N-11) has what log10 of IC50?
0.45

Data request, read-out log10 of IC50, for CC[C@@H]1C(=O)NC2(CCCC2)C(=O)N(C)[C@@H](C2CCCCC2)C(=O)N(C)[C@H](C(=O)N2CCCCC2)CC(=O)N(C)[C@@H](CC(C)C)C(=O)N[C@@H]([C@@H](C)CC)C(=O)N(C)CC(=O)N(C)CC(=O)N(C)[C@@H](CC2CCCCC2)C(=O)N(C)CC(=O)N[C@@H](CCc2ccc(C(F)(F)F)c(Cl)c2)C(=O)N1C [Compound 1435] ([NMeL]I[Sar][Sar][NMeCha][Sar][hPhe(3-Cl-4-CF3)][dNMeAbu][Ac5c][NMeChg][NMeD]-Piperidide; lactam N-11)
0.87
